molecular target: T1, rat serum albumin (rat, UniProt P02770 25-608); assay: SPR, single cycle kinetics, pH 7.4
T1 construct: also called RSA
// reported Kd per item
outcome measure: Kd (nM)

binder	meas value
R28-H1 (VHH) VHH: EVQLVESGGGLVQPGGSLRLSCAASGRTFIAYAMGWFRQAPGKGLEFVSAITNFAGGTTYYADSVKGRFTISRDNSKNTLYLQMNSLRAEDTAVYYCAADRSAQTMRQVRPVLPYWGQGTLVTVSS	5.3
R11-H6 (VHH) VHH: QVQLVESGGGLVQPGGSLRLSCAGPGFLLRSNTMGWYRQAPGKERELVAFIRPSGLTNYNDAVQGRFTISRDNAKNTVYLQMNSLRAEDTAVYYCHTRPPFQRDSWGQGTLVTVSS	151
M79-H2 (VHH) VHH: EVQLVESGGGLVQPGGSLRLSCAASGSTFSSSSVGWYRQAPGKGLELVSAITSGGSTNTADSVKGRFTISRDNSKNTLYLQMNSLRAEDTAVYYCNVAGRNWVPISRYSPGPYWGQGTLVTVSS	10.4
M79-H3 (VHH) VHH: EVQLVESGGGLVQPGGSLRLSCAASGSTFSSSSVGWYRQAPGKQRELVSAITSGGSTNTADSVKGRFTISRDNSKNTLYLQMNSLRAEDTAVYYCNVAGRNWVPISRYSPGPYWGQGTLVTVSS	8.7
